assayed.system: human JAK2 catalytic kinase (JH1) domain (Homo sapiens (Human), UniProt O60674)
Sequence (O60674 849-1124): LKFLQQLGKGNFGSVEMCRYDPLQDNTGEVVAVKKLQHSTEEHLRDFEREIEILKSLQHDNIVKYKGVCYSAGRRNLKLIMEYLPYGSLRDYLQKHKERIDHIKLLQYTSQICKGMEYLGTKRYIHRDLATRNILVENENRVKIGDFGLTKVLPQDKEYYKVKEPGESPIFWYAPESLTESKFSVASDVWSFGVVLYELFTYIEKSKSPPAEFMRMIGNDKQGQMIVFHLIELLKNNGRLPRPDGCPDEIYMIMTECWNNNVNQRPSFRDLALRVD
test.details: ADP-Glo Kinase Assay, recombinant JAK2 catalytic kinase (JH1) domain
Type: biochemical
condition.details: recombinant JH1 domain 0.2 nM, 15 μM ATP, JAK3-974 peptide, mean, read-out: JAK2 biochem IC50 (nM) Mean
observation.type: IC50 (nM)
Report as a plain number; the unit nM is understood.

{"molecule": "Cn1cc(-c2cc3c(N4CC5CCC(C4)N5C(=O)[C@@H]4C[C@H]4F)ncnc3[nH]2)cn1", "IC50 / nM": 106}

Now for another entry.
## Task Given the entry O=C([C@@H]1C[C@H]1F)N1C2CCC1CN(c1ncnc3[nH]c(-c4ccc(C(F)(F)F)nc4)cc13)C2 , report its measured IC50.
## Result 813

* * *

log10(IC50) by entry:
assayed.system: human JAK3 catalytic kinase (JH1) domain (Homo sapiens (Human))
Sequence (P52333 822-1111): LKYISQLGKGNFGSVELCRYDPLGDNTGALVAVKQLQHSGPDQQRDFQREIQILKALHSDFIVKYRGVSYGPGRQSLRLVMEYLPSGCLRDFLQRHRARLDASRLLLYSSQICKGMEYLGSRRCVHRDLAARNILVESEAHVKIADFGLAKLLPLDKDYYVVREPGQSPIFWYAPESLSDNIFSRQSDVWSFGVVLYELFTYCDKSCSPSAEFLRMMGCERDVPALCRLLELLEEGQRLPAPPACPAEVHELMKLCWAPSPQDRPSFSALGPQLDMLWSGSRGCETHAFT
test.details: ADP-Glo Kinase Assay, recombinant JAK3 catalytic kinase (JH1) domain
Assay type: biochemical
condition.details: recombinant JH1 domain 0.3 nM, 4 μM ATP, JAK3-974 peptide, mean, read-out: JAK3 biochem IC50 (nM) Mean
Could you please treat all values as log10 of IC50 in nM?

{"compound": "Cn1cc(-c2cc3c(N4CC5CCC(C4)N5C(=O)[C@@H]4CC4(F)F)ncnn3c2)cn1 [Example 83]", "assayed.system": "human JAK3 catalytic kinase (JH1) domain (Homo sapiens (Human))", "log10(IC50)": 3.21}

## Task Given the entry Cn1cc(-c2cc3c(N4CC5CCC(C4)N5C(=O)[C@H]4C[C@@H]4F)ncnn3c2)cn1 [Example 6] , report its measured log10(IC50).
## Result 2.92

## Task Given the entry O=C(C1CC1)N1C2CCC1CN(c1ncnn3cc(-c4cnn(C5COC5)c4)cc13)C2 [Example 151] , report its measured log10(IC50).
## Result 3.53

## Task Given the entry COc1cc(-c2nc3c(N4CC5CCC(C4)N5S(=O)(=O)C4CC4)ccnc3[nH]2)ccn1 [Example 196] , report its measured log10(IC50).
## Result 3.00

* * *

assayed.system: human TYK2 catalytic kinase (JH1) domain (Homo sapiens (Human))
Sequence (P29597 897-1176): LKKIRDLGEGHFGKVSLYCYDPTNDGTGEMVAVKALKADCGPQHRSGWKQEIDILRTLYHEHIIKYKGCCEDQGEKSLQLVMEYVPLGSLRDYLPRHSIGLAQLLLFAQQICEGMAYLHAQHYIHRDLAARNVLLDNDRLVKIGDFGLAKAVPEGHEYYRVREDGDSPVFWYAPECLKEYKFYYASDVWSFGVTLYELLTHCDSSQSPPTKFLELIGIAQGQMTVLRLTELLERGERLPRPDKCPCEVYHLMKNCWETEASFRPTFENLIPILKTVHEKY
test.details: ADP-Glo Kinase Assay, recombinant TYK2 catalytic kinase (JH1) domain
Assay type: biochemical
condition.details: recombinant JH1 domain 2 nM, 10 μM ATP, JAK3-974 peptide, mean, read-out: TYK2 biochem IC50 (nM) Mean
IC50 by entry:
Express your answer as a number followed by its unit.

Example entries and their recorded answers appear below.
{"cpd.smiles": "COc1ccc(-c2cc3c(N4CC5CCC(C4)N5C(=O)[C@@H]4C[C@H]4F)ncnc3[nH]2)cn1", "IC50": "21.3 nM"}
{"cpd.smiles": "Cn1cc(-c2cc3c(N4CC5CCC(C4)N5C(=O)[C@@H]4C[C@H]4F)ccnc3[nH]2)c(F)n1", "IC50": "0.2 nM"}
{"cpd.smiles": "COc1cc(-c2nc3c(N4CC5CCC(C4)N5C(=O)[C@@H]4C[C@H]4F)ccnc3[nH]2)ccn1", "IC50": "7 nM"}
{"cpd.smiles": "Cn1cc(-c2cc3c(N4CC5CCC(C4)N5C(=O)[C@@H]4C[C@H]4F)ccnn3c2)ccc1=O", "IC50": "2.6 nM"}
{"cpd.smiles": "Cc1cc(-c2cc3c(N4CC5CCC(C4)N5C(=O)[C@@H]4C[C@H]4F)ncnn3c2)ccn1", "IC50": "21.8 nM"}
{"cpd.smiles": "COc1nccc(-c2cc3c(N4CC5CCC(C4)N5C(=O)[C@@H]4C[C@H]4F)ccnc3[nH]2)c1F", "IC50": "1.4 nM"}

Now for another entry.
## Task Given the entry Cc1c(-c2cnn(C)c2)[nH]c2nccc(N3CC4CCC(C3)N4C(=O)[C@@H]3C[C@H]3F)c12 , report its measured IC50.
## Result 19 nM

* * *

assayed.system: human JAK2 catalytic kinase (JH1) domain (Homo sapiens (Human), UniProt O60674)
test.details: ADP-Glo Kinase Assay, recombinant JAK2 catalytic kinase (JH1) domain
Format: biochemical
condition.details: recombinant JH1 domain 0.2 nM, 15 μM ATP, JAK3-974 peptide, mean, read-out: JAK2 biochem IC50 (nM) Mean
observation.type: log10 of IC50 (log10 of the value in nM)
Could you please treat all values as log10 of IC50 in nM?

{"compound": "Cn1cc(-c2cc3c(N4CC5CCC(C4)N5C(=O)C(F)(F)F)ncnn3c2)cn1", "assayed.system": "human JAK2 catalytic kinase (JH1) domain (Homo sapiens (Human), UniProt O60674)", "data.value": 3.69}
{"compound": "COc1cc(-c2cc3c(N4CC5CCC(C4)N5C(=O)[C@@H]4C[C@H]4F)ncnc3[nH]2)ccn1", "assayed.system": "human JAK2 catalytic kinase (JH1) domain (Homo sapiens (Human), UniProt O60674)", "data.value": 2.49}
{"compound": "O=C(C1CC1)N1C2CCC1CN(c1ncnn3cc(-c4ccnc(Cl)c4)cc13)C2", "assayed.system": "human JAK2 catalytic kinase (JH1) domain (Homo sapiens (Human), UniProt O60674)", "data.value": 4.00}
{"compound": "CC(C)C(=O)N1C2CCC1CN(c1ncnn3cc(-c4cnn(C(F)F)c4)cc13)C2", "assayed.system": "human JAK2 catalytic kinase (JH1) domain (Homo sapiens (Human), UniProt O60674)", "data.value": 3.90}
{"compound": "COc1cc(-c2cc3c(N4CC5CCC(C4)N5C(=O)[C@@H]4C[C@H]4F)ccnn3c2)ncn1", "assayed.system": "human JAK2 catalytic kinase (JH1) domain (Homo sapiens (Human), UniProt O60674)", "data.value": 2.28}

## Task Given the entry O=C([C@@H]1C[C@H]1F)N1C2CCC1CN(c1ncnn3cc(-c4ccnc(C(F)F)c4)cc13)C2 , report its measured log10 of IC50.
## Result 2.77

## Task Given the entry O=C(C1CC1)N1C2CCC1CN(c1c(F)cnn3cc(-c4cnn(C(F)F)c4)cc13)C2 , report its measured log10 of IC50.
## Result 3.17

* * *

assayed.system: human JAK1 catalytic kinase (JH1) domain (Homo sapiens (Human), UniProt P23458)
Sequence (P23458 875-1153): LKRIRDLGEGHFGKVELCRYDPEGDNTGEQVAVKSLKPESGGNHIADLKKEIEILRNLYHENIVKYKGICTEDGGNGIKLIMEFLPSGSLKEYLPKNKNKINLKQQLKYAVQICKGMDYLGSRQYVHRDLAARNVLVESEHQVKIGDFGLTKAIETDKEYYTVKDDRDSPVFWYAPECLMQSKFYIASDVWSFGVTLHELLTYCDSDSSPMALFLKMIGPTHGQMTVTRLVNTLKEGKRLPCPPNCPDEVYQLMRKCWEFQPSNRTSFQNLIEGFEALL
test.details: ADP-Glo Kinase Assay, recombinant JAK1 catalytic kinase (JH1) domain
Format: biochemical
condition.details: recombinant JH1 domain 4 nM, 35 μM ATP, JAK3-342 peptide, mean, read-out: JAK1 biochem IC50 (nM) Mean
Quick rule for you: IC50 under 400 nM gets criterion met, anything else gets criterion not met.

{"compound": "Cn1cc(-c2cc3c(N4CC5CCC(C4)N5S(=O)(=O)C4CC4)ccnn3c2)cn1", "group": "criterion not met"}
{"compound": "O=C([C@@H]1C[C@H]1F)N1C2CCC1CN(c1ccnc3[nH]c(-c4ccc(C(F)F)nc4)nc13)C2", "group": "criterion met"}
{"compound": "O=C(C1CCC1)N1C2CCC1CN(c1ncnn3cc(-c4cnn(C(F)F)c4)cc13)C2", "group": "criterion not met"}

## Task IC50 under 400 nM? Item: COc1cc(-c2cc3c(N4CC5CCC(C4)N5C(=O)[C@@H]4C[C@H]4F)ccnc3[nH]2)ccn1
## Result criterion met

## Task IC50 under 400 nM? Item: O=C([C@@H]1C[C@H]1F)N1C2CCC1CN(c1ccnn3cc(C4CC4)cc13)C2
## Result criterion not met

## Task IC50 under 400 nM? Item: COc1cc(-c2cn3ncc(F)c(N4CC5CCC(C4)N5C(=O)[C@@H]4C[C@H]4F)c3n2)ccn1 (stereo in doubt)
## Result criterion met

* * *

assayed.system: human JAK2 catalytic kinase (JH1) domain (Homo sapiens (Human), UniProt O60674)
test.details: ADP-Glo Kinase Assay, recombinant JAK2 catalytic kinase (JH1) domain
Type: biochemical
condition.details: recombinant JH1 domain 0.2 nM, 15 μM ATP, JAK3-974 peptide, mean, read-out: JAK2 biochem IC50 (nM) Mean
Quick rule for you: IC50 under 600 nM gets satisfied, anything else gets not satisfied.

Please review the entries below; each comes with its answer.
{"molecule": "COc1nccc(-c2cc3c(N4CC5CCC(C4)N5C(=O)[C@@H]4C[C@H]4F)ccnn3c2)c1F", "group": "satisfied"}
{"molecule": "O=C(C1CC1)N1C2CCC1CN(c1ncnn3cc(-c4cnn(C5COC5)c4)cc13)C2", "group": "not satisfied"}
{"molecule": "Cn1cc(-c2cc3c(N4CC5CCC(C4)N5C(=O)[C@@H]4CC4(F)F)ncnn3c2)cn1", "group": "not satisfied"}
{"molecule": "O=C([C@@H]1C[C@H]1F)N1C2CCC1CN(c1ccnc3[nH]c(N4CCOCC4)nc13)C2", "group": "not satisfied"}
{"molecule": "O=C([C@H]1CC1(F)F)N1C2CCC1CN(c1ncnn3cc(-c4cnn(C(F)F)c4)cc13)C2 [Example 8]", "group": "not satisfied"}
{"molecule": "O=C([C@H]1C[C@@H](C(F)(F)F)C1)N1C2CCC1CN(c1ncnn3cc(-c4cnn(C(F)F)c4)cc13)C2", "group": "not satisfied"}
{"molecule": "CCC(=O)N1C2CCC1CN(c1ncnn3cc(-c4cnn(C(F)F)c4)cc13)C2", "group": "not satisfied"}

Attention now turns to another entry.
## Task IC50 under 600 nM? Item: Cn1cc(-c2nc3c(N4CC5CCC(C4)N5C(=O)C4CC4)ccnc3[nH]2)cn1
## Result satisfied
